Hello, the source for this data is PubChem BioAssay (NCI), in case you need it.

- Test system: SNB-19 CNS
- Protocol Details: NCI tumour cell line growth inhibition, 48 h
Readout Label: TGI

Q: Find the recorded TGI belonging to CC12CCC(C(Br)(Br)C1=O)C2(C)C (stereo unspecified) and report it.
Result: > 57.6 µM

Q: Find the recorded TGI belonging to COc1cc(NCCCCCN=C(N)N)c2ncccc2c1 and report it.
Result: 30.3 µM

Q: Find the recorded TGI belonging to CCOC(=O)c1sc2nc(SC)nc3c2c1NCN3C1CC1 and report it.
Result: > 100 µM

Q: Find the recorded TGI belonging to COc1ccc(C(N)=O)c(OC)c1OCc1ccccc1 and report it.
Result: > 100 µM

Q: Find the recorded TGI belonging to O=C1c2ccccc2-c2nnc(-c3ccc(Br)cc3)cc21 and report it.
Result: > 100 µM

Q: Find the recorded TGI belonging to CC(=O)O[C@H]1CCC2(C)C(=CCC3C2CCC2(C)/C(=N/OC(=O)c4ccc(N(CCCl)CCCl)cc4)CCC32)C1 (stereo partly specified) and report it.
Result: 98.2 µM

Q: Find the recorded TGI belonging to O=C1OCC=C1COC1OC(CO)C(O)C(O)C1O (stereo unspecified) and report it.
Result: > 100 µM

Q: Find the recorded TGI belonging to Cn1c(=O)[nH]c2nccnc2c1=O and report it.
Result: > 10 µM

Q: Find the recorded TGI belonging to Cc1ncc([N+](=O)[O-])n1CCNC(=O)CCCn1ccnc1[N+](=O)[O-] and report it.
Result: > 100 µM

Q: Find the recorded TGI belonging to COc1cc(C[C@@H](C)N)cc(OC)c1 and report it.
Result: > 100 µM

Q: Find the recorded TGI belonging to Cc1cc(S(=O)(=O)n2ccnc2Oc2cccc(Cl)c2)c(SSc2cc(Cl)c(C)cc2S(=O)(=O)n2ccnc2Oc2cccc(Cl)c2)cc1Cl and report it.
Result: > 100 µM

Q: Find the recorded TGI belonging to COc1ccc2[nH]c(-c3ccccc3)c(/C=C(\C#N)S(=O)(=O)c3ccccc3)c2c1 and report it.
Result: > 100 µM

Q: Find the recorded TGI belonging to COc1cc2ncn(-c3cc(O[C@H](C)c4ccccc4Cl)c(C(N)=O)s3)c2cc1OC and report it.
Result: > 25 µM

Q: Find the recorded TGI belonging to O=C(NCc1ccc(Cl)cc1Cl)c1ccc(NC2=C(Cl)C(=O)N(Cc3ccccc3)C2=O)cc1 and report it.
Result: > 100 µM

Q: Find the recorded TGI belonging to CCOC(=O)C1(C)CCc2sc(N)c(C#N)c21 (stereo unspecified) and report it.
Result: > 100 µM

Q: Find the recorded TGI belonging to CCOC(=O)[C@H]1O[C@@H]1C(=O)N[C@@H](CC(C)C)C(=O)NCCc1ccc(O)cc1 and report it.
Result: > 100 µM

Q: Find the recorded TGI belonging to CC(CC[C@@H](C)C1CCC2[C@@H]3CC(O)C4CC(O)[C@@H](O)C[C@]4(C)C3CC[C@@]21C)C(C)(C)C (stereo partly specified) and report it.
Result: > 100 µM

Q: Find the recorded TGI belonging to COP(=O)(OC)/C(=C/c1c[nH]c2ccccc12)C(=O)O and report it.
Result: > 100 µM

Q: Find the recorded TGI belonging to Cc1cc(O)c(C=O)c2c1C(=O)Oc1c(CO)c(O)c3c(c1O2)C(O)OC3=O (stereo unspecified) and report it.
Result: > 100 µM

Q: Find the recorded TGI belonging to CCOC(=O)Nn1c(C)nnc1CC#N and report it.
Result: > 100 µM

Q: Find the recorded TGI belonging to Cc1cc(C)c(S(=O)(=O)N2CCN(S(=O)(=O)c3c(C)cc(C)cc3C)OCCCCCO2)c(C)c1 and report it.
Result: > 100 µM

----------
Task for the reader: assign each of the following compounds its reported TGI.
- System: BT-549 breast
- Protocol Details: NCI tumour cell line growth inhibition, 48 h

Q: Find the recorded TGI belonging to CC12OC1(C)C1C(=O)OCC1C2=O (configuration not stated) and report it.
Result: > 100 µM

Q: Find the recorded TGI belonging to Cn1c(O)c(C2=Nc3ccccc3C2=O)c2ccccc21 and report it.
Result: > 100 µM

Q: Find the recorded TGI belonging to CN(C)c1ccc(C(=O)NCCCCCCC(=O)NO)cc1 and report it.
Result: > 28.3 µM

Q: Find the recorded TGI belonging to CC(=O)NCCc1c(-c2[nH]c3ccccc3c2CCNC(C)=O)[nH]c2ccccc12 and report it.
Result: > 100 µM

Q: Find the recorded TGI belonging to CNC(=S)Nc1sc2c(c1C#N)CCCC2 and report it.
Result: > 75 µM

Q: Find the recorded TGI belonging to O=C1Nc2ccccc2C1=Nc1ccc(S(=O)(=O)Nc2nccs2)cc1 and report it.
Result: > 100 µM

Q: Find the recorded TGI belonging to CN1C2CCC1CN(CCOC(c1ccc(F)cc1)c1ccc(F)cc1)C2 and report it.
Result: > 100 µM

Q: Find the recorded TGI belonging to CCOC(=O)Nn1c(C)nnc1CC#N and report it.
Result: > 100 µM

Q: Find the recorded TGI belonging to Oc1ccc2ccccc2c1CN(Cc1c(O)ccc2ccccc12)C1CCCCC1 and report it.
Result: 42.7 µM

Q: Find the recorded TGI belonging to CCN(CC)C(=O)C[n+]1c2ccccc2n2cc(N)ccc21 and report it.
Result: > 100 µM

Q: Find the recorded TGI belonging to COc1ccc2[nH]c(S(=O)(=O)N3CC(CCl)c4ccc(N)cc43)cc2c1 (configuration not stated) and report it.
Result: 27.6 µM

Q: Find the recorded TGI belonging to C(#Cc1cnccn1)/C=C\C#Cc1cnccn1 and report it.
Result: 37.4 µM

----------
- Tested on: MDA-MB-231 breast
- Protocol Details: NCI tumour cell line growth inhibition, 48 h; in the data active means GI50 below about 0.43 µM; inactive means the rest
*1 amine or outer side, *2 acyl side, *3 side chain or, on linkers, in order; H or OH if unused. Where a SMILES comes first, the peptide text is derived from it. Bridges are numbered along the chain shown (N, C = ends). [ ]: non-standard residue; d: D form. Adda = CO[C@@H](Cc1ccccc1)[C@@H](C)/C=C(C)/C=C/[C@H](N[*:1])[C@H](C)C(=O)[*:2]; dAsp(3S-Me) = C[C@H](C(=O)[*:3])[C@@H](N[*:1])C(=O)[*:2]; d(γGlu) = O=C(O)[C@@H](CCC(=O)[*:2])N[*:1]; NMeDha = C=C(NC)C(=O)O
Write down the outcome that applies. Available outcomes: active, inactive

Q: So what was the verdict on O=C(NCc1ccc(Cl)cc1Cl)c1ccc(NC2=C(Cl)C(=O)N(Cc3ccccc3)C2=O)cc1 in this test?
Result: inactive

Q: So what was the verdict on O=C(/C=C/c1ccc(Cl)cc1)/C=C/c1cc2ccccc2[nH]c1=O in this test?
Result: inactive

Q: So what was the verdict on C=C1C(=O)N[C@H](C)C(=O)N[C@@H](CC(C)C)C(=O)N[C@@H](C(=O)O)[C@H](C)C(=O)N[C@@H](CCCN=C(N)N)C(=O)N[C@@H](/C=C/C(C)=C/[C@H](C)[C@H](Cc2ccccc2)OC)[C@H](C)C(=O)N[C@@H](C(=O)O)CCC(=O)N1C (R[Adda][d(γGlu)][NMeDha][dA]L[dAsp(3S-Me)]-OH; lactam N-7) in this test?
Result: inactive

Q: So what was the verdict on Fc1cnc(NC2CC2)nc1-c1cnc2ccc(N3CCOCC3)cn12 in this test?
Result: active

Q: So what was the verdict on C(#Cc1cnccn1)/C=C\C#Cc1cnccn1 in this test?
Result: inactive

Q: So what was the verdict on O=C1Nc2cc(Cl)ccc2/C1=C\c1c(-c2ccc(F)cc2)nc2ccccn12 in this test?
Result: inactive

Q: So what was the verdict on Nc1nc(/C=C\c2ccc([N+](=O)[O-])cc2)nc(N2CCN(c3ccccc3)CC2)n1 in this test?
Result: inactive

Q: So what was the verdict on O=C(O)CNC(=O)C(CS)Cc1ccccc1 (stereo unspecified) in this test?
Result: inactive

Q: So what was the verdict on O=C(Nc1ccc(CN2CCOCC2)cc1)c1ccc(-c2cc(Cl)ccc2Cl)o1 in this test?
Result: inactive

Q: So what was the verdict on COc1ccc2[nH]c(-c3ccccc3)c(/C=C(\C#N)S(=O)(=O)c3ccccc3)c2c1 in this test?
Result: inactive

Q: So what was the verdict on O=C(Nc1cccc(-n2cc(-c3ccncc3)c(-c3ccc(Cl)c(O)c3)n2)c1)Nc1ccc(Cl)c(C(F)(F)F)c1 in this test?
Result: inactive

----------
- Test system: SK-MEL-28 melanoma
- Protocol Details: NCI tumour cell line growth inhibition, 48 h
Residues, ends and D or L forms follow the SMILES beside them. *: point of attachment. Boc = CC(C)(C)OC(=O)*
Readout Label: TGI

Q: Return TGI measured with SK-MEL-28 melanoma given this molecule: COc1cc(C[C@@H](C)N)cc(OC)c1
Result: > 100 µM

Q: Return TGI measured with SK-MEL-28 melanoma given this molecule: CC(=O)O[C@H]1CC2C(C3CCC(C(C)CCC(=O)O)[C@]31C)[C@H](OC(C)=O)C[C@@H]1CC3(CC[C@]21C)OOC1(CC[C@]2(C)C4C[C@H](OC(C)=O)[C@]5(C)C(C(C)CCC(=O)O)CCC5C4[C@H](OC(C)=O)C[C@@H]2C1)OO3 (some centres not stated)
Result: > 100 µM

Q: Return TGI measured with SK-MEL-28 melanoma given this molecule: CC1(C)OC2C(CO)OC(n3cnc(N)nc3=O)C2O1 (configuration not stated)
Result: > 100 µM

Q: Return TGI measured with SK-MEL-28 melanoma given this molecule: COc1ccc(C2[C@H]3C(=O)N(c4ccc(Cc5ccc(N6C(=O)[C@@H]7ON(c8ccccc8)C(c8ccc(OC)cc8)[C@@H]7C6=O)cc5)cc4)C(=O)[C@H]3ON2c2ccccc2)cc1 (some centres not stated)
Result: > 100 µM

Q: Return TGI measured with SK-MEL-28 melanoma given this molecule: COC(=O)CNC(=O)C(Cc1ccccc1)NC(=O)C(Cc1ccccc1)NC(=O)OC(C)(C)C (stereo not drawn) (Boc-Phe-Phe-Gly-OMe; configuration not given here)
Result: 38.2 µg/mL

Q: Return TGI measured with SK-MEL-28 melanoma given this molecule: N=C(N)N=Nc1ccc(NN=C(N)N)c2c1ncc1c2nc2sccn21
Result: 95 µM

Q: Return TGI measured with SK-MEL-28 melanoma given this molecule: Cc1cc(NS(=O)(=O)c2ccc(NC(=O)c3cccn4c(=O)c5ccccc5nc34)cc2)no1
Result: > 100 µM

Q: Return TGI measured with SK-MEL-28 melanoma given this molecule: COc1nc(N)c(C#N)c(C#N)c1C#N
Result: > 10 µM

Q: Return TGI measured with SK-MEL-28 melanoma given this molecule: O=C(NCc1ccc(Cl)cc1Cl)c1ccc(NC2=C(Cl)C(=O)N(Cc3ccccc3)C2=O)cc1
Result: > 100 µM

Q: Return TGI measured with SK-MEL-28 melanoma given this molecule: O=c1c2ccc3cccc4c(=O)c5ccc6cccc1c6c5-c2c34
Result: > 50 µM

Q: Return TGI measured with SK-MEL-28 melanoma given this molecule: COc1ccc(C2C(Cl)C(=O)N2NC(=O)c2ccc(N)cc2)cc1 (configuration not stated)
Result: > 100 µM

Q: Return TGI measured with SK-MEL-28 melanoma given this molecule: CCOC(=O)N1C/C(=C/c2ccc(F)cc2)C(=O)/C(=C/c2ccc(F)cc2)C1
Result: 3.35 µM

Q: Return TGI measured with SK-MEL-28 melanoma given this molecule: C=C1C(O)C23CCC4C(C(=O)O)(C(=O)O)CC(OC5OC(CO)C(O)C(OC(=O)CCc6ccccc6)C5NC(=O)CC(C)C)CC4(C)C2CCC1(O)C3 (configuration not stated)
Result: > 100 µM

Q: Return TGI measured with SK-MEL-28 melanoma given this molecule: O=C(O)c1cc(C(=O)O)nc(C(=O)O)c1
Result: > 100 µM

Q: Return TGI measured with SK-MEL-28 melanoma given this molecule: CC(C)(CN1CCCCC1)C(/C=C/c1ccc(Cl)c(Cl)c1)=N\NC(=O)N/N=C(/C=C/c1ccc(Cl)c(Cl)c1)C(C)(C)CN1CCCCC1
Result: 3.16 µM

Q: Return TGI measured with SK-MEL-28 melanoma given this molecule: Nc1nc(/C=C\c2ccc([N+](=O)[O-])cc2)nc(N2CCN(c3ccccc3)CC2)n1
Result: > 100 µM

Q: Return TGI measured with SK-MEL-28 melanoma given this molecule: CN1CCc2c(c3ccccc3c3ccccc23)C1
Result: 18.9 µM
